tested on: PPARg DBDmut IVT, anti-PPARg (DBD mutation: PPARg1 K132A/R137A, NR concentration 270 nM); experiment: PBM binding z-score (relative to random genomic background probes); higher = stronger binding; sequences stand for … in GC…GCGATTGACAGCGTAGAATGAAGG
Give PBM binding z-score for every item shown.
Lab note: record the figure alone, no unit after it.

Entry GCGACAGGGGCAAAGCAGGTTACCATAAGGTTGG , PBM binding z-score reported as -0.736

What the record says about TCTAGCAGGCCAGAGGGTCACTCGAGAGGTACGG : PBM binding z-score is -1.13

Field PBM binding z-score (entry CAAACTAGGTCACCCGAAGGTCAAAGTCCGCATG ) reads 7.09

Field PBM binding z-score (entry ACTAGCAGGCCAAGTTTGGGTCATTCAAACAAAG ) reads -0.939

Value of measured PBM binding z-score for the entry AGAATGAGGTTGAGATCAGGGAAACAGAATACAT : 0.0775

Documented PBM binding z-score of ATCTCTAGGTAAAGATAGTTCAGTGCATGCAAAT : 1.06

---

tested on: LXRa:RXRa (NR concentration 270 nM, RXRa partner concentration 90 nM); experiment: PBM binding z-score (relative to random genomic background probes); higher = stronger binding; sequences stand for … in GC…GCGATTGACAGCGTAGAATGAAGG
Categorized via PBM binding z-score: lower range: < 0.7; middle range: ≥ 0.7 and < 6; upper range: ≥ 6

Exam item: assign CCTCGGCGGACAGAAGGTCAGAGCTGTCCGCTTT to the correct category.
middle range

Consider GGAACGAGGGCAAGTTGATAGCCGAGTTTGATGG . To which PBM binding z-score class does it belong?
lower range

Pick a category. Item: CCTAGTTGGTCAGGAGCTCACACACCGGATATGA
lower range

Sort CCCAGCAGGCCAATCTGGGTCACTCAAGGCTTGA into one of the categories.
middle range

For this sequence, which bin applies? CATACTAGGTCACCGGAAGGTCAAAGTCCGCATG
upper range

Would you mind sorting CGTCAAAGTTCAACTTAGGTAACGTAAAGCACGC into the appropriate category?
upper range

Form: Item = ACTAGTTGGTCAGCTGAGGACACACACAATTCGG ; Class = ?
lower range

Categorize the following entry: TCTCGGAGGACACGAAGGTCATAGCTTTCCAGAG
middle range

Dear colleague, I would appreciate it if you could identify the bin for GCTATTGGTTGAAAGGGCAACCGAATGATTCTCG and reply at your convenience.
lower range

Kindly state the category for this sequence: ACTTACGGGTCATCGAGGTTATAGCACGCGTATA
middle range

---

system: RXRa homodimer (NR concentration 180 nM); assay: PBM binding z-score (relative to random genomic background probes); higher = stronger binding; sequences stand for … in GC…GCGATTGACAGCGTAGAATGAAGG
Kindly state PBM binding z-score for each of the entries shown.
Form field (numeric): enter value without unit.

Please fill in: PBM binding z-score reported for CGGACTAGGTCATTGACAGGACAGTGAATAGTAA = 2.38

Form field PBM binding z-score, entry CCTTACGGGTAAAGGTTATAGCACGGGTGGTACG : 2.34

The sequence CTTCAAAGTTCAACTAAGGTAACGTAAAGCACGC showed PBM binding z-score equal to 5.26

Data point: GCTAGGAGGACAAGGTCAGAGCTTTGTCCGTAGA ; PBM binding z-score = 2.29

Reported PBM binding z-score of TCATATAGGCAAAGGTGAAAGTCGAACGATATGA : 2.3

Field PBM binding z-score (entry CGTCCTAGGTCAGCAGGTCAGTGAAAGCGACGTG ) reads 3.21

response.value for CAAACTAGGTCACGAAAGGTCAAAGTAGAATGAC (field: PBM binding z-score) = 8.5

// sample CGTCCAAGGACAGAGAGGTCAGTGAATGCCGAGT , its PBM binding z-score was 2.11

So for TAGCCTAGGTCAGATCGGGCCAGTACACGCTATA , the logged PBM binding z-score turned out to be 1.55

Value of PBM binding z-score reported for the sequence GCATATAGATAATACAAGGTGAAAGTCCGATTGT is 0.586

# PBM binding z-score of TGAATGAGGTTATAAGATCAGGAAACGTTGCAAA = 2.21

For reference, reported PBM binding z-score for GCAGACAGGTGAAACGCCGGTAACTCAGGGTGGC stands at 0.513

Lab note: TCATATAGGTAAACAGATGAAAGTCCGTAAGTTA gave PBM binding z-score of 0.703

The value of PBM binding z-score measured for the sequence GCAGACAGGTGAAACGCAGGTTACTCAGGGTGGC turned out to be 1.07

Just so you know, measured PBM binding z-score for AGTCACAGTTCAGGACGAGGTAACGTAAAGCACG came out at 1.28

Briefly, PBM binding z-score measured for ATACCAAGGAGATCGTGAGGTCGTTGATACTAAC : 0.833

Entry GAATATAGGTAATACAAGGTGAAAGTCCGATTGT — recorded PBM binding z-score = 0.89

# sequence CCTACTCGGCCAAGGTCATTGATCAGTCAAAGCA ; its PBM binding z-score = 3.6

# PBM binding z-score (sequence: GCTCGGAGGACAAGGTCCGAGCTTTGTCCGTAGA ) is -0.792

Data point: CCAGACCGGTGAAAGGTAACTCAGTCTGGTACGC ; PBM binding z-score = 0.696

Item: ACTATTAGTTGACTTCGGGCAACCGATACGACGC | PBM binding z-score: 0.42

The recorded PBM binding z-score for entry GCTTACGGGTCAAAGGTTATAGCGTGAATAGAAT equals 9.28

Note to self: PBM binding z-score recorded for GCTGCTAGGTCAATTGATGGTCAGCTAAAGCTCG was 1.95

CCGAGCAGGTTATGGGGCATTCAGGCAACGGTGA yielded PBM binding z-score of 0.679

PBM binding z-score reported for this sequence TCATATAGGGAAATGCTAGGTGAAAGTCCGATCT : 0.678

Entry under test: TAGCATAGGTCATTCAGGGGCCAGTATAGAAAGC . Its PBM binding z-score was 5.02

---

system: FXR:RXRa (NR concentration 270 nM, RXRa partner concentration 90 nM); test: PBM binding z-score (relative to random genomic background probes); higher = stronger binding; sequences stand for … in GC…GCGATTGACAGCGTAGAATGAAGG
Give measured PBM binding z-score for each item. Keep answers brief.
Reply with just the number.

Value of measured PBM binding z-score for the entry ATACCAAGGCGATCGTGAGGTCGTTGATACTAAC : 0.659

For record GCATAAAGGTAATACAAGGTGAAAGTCCGATTGT the listed PBM binding z-score is 0.963

Noted for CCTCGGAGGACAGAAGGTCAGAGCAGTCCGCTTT : its PBM binding z-score reads 1.47

TCTTGTAGATCAACAAGAGGTTAAGAAAGATCGA has a reported PBM binding z-score of 0.445

So, GCGACTGGGGCACCAGCAGGTTACCATAACTTAA ? Its PBM binding z-score was -0.545

Value of PBM binding z-score reported for the sequence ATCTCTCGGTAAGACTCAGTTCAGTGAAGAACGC is 0.549

# PBM binding z-score of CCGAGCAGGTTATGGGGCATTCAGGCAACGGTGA = 0.101

Entry CGAACGAGGGCATGAGTTGATAGGAAATGCCGAT ; PBM binding z-score = 0.317

// PBM binding z-score value for ACATGTAGGTTATCGGGTCATTCAGTTTGCGCAT : 3.45

# PBM binding z-score (sequence: GCAGACAGGTGAAACGCAGGTAAGTCAGGGTGGC ) is -0.334

Value of PBM binding z-score reported for the sequence CCTGCTAGGTCATGGGCAGCTAATCTACAGTATG is 4.12

For record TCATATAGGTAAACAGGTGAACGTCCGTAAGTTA the listed PBM binding z-score is 1.03

---

Kindly state PBM binding z-score for each of the entries shown.
tested on: RARa homodimer (NR concentration 270 nM); assay: PBM binding z-score (relative to random genomic background probes); higher = stronger binding; sequences stand for … in GC…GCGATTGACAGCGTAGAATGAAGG
API note: the answer field is a bare number with no unit suffix.

For this sequence ( TGAATGAGGTTATAAGATCAGGGGACGTTGCAAA ), measured PBM binding z-score is 0.169

Form: sequence = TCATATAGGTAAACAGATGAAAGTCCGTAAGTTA ; PBM binding z-score = 1.28

The reported PBM binding z-score of the sequence ATACCAAGGTGATCGTGAGGTCGTGGATACTAAC was 0.48

The value of PBM binding z-score measured for the sequence GATACAGGGTCAAGGCCAGAGCACGCGTATTGAT turned out to be 0.569

For record AGGACGAGGGCACGCTGAGTTGATAGCAGAGTAG the listed PBM binding z-score is -0.58

CCTTACTGGTCACGAGGTTATAGCACGACGAGCG has a reported PBM binding z-score of 1.15

The sequence listed as TAAACAGGGTCAAAGGCCAGAGTACGAATGTCGA shows PBM binding z-score equal to 0.87

Entry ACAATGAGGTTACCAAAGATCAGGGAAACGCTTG ; PBM binding z-score = 0.0916

Input AGAACGAGGCCACGCTGAGTTGATAGCAGAGTAG . Output PBM binding z-score: -0.379

// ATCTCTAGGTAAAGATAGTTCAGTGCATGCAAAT : PBM binding z-score value = 0.906

The measured PBM binding z-score associated with CCTCGCAGGACAACAGGAGGTCAGAGCTGCCAGA reads -0.0612

Value of measured PBM binding z-score for the entry ATCTCTAGGTAAAAGTTCAGTGATTCCCGAGGAT : 0.97

src = the supplement of paper PMC6555819
